- system_tested: T1, human histidine-rich glycoprotein (HRG), purified from human plasma (human, UniProt P04196 19-525)
- T1 construct: also called human purified HRG; human purified HRG protein
- T1 sequence: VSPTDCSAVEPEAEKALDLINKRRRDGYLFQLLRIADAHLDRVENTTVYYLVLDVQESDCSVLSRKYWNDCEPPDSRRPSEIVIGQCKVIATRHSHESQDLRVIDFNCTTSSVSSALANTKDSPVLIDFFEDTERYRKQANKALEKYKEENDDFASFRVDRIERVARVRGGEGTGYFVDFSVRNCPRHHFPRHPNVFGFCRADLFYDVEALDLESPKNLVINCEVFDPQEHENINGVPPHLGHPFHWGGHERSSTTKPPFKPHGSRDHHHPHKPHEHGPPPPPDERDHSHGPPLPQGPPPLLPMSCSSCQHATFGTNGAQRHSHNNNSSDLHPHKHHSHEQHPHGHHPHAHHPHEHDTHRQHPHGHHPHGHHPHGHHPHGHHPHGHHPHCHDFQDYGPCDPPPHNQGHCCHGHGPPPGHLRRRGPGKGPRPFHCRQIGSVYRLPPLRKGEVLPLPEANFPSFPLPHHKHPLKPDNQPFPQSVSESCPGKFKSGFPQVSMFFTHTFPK
- test_protocol: sandwich ELISA, HRG captured by solid phase 88-2E

binder | absorbance at 450 nm
anti-HRG monoclonal antibody 67-8A-5F (antibody, V domains shown, Mouse hybridoma monoclonal) VH: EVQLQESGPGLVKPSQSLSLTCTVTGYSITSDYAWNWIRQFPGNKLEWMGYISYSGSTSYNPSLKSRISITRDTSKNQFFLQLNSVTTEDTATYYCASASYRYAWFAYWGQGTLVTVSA VL: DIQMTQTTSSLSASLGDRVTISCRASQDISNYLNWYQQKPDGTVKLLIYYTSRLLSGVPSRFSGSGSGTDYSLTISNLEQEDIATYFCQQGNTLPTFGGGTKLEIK | < 1 OD
anti-HRG monoclonal antibody 69-1A (antibody, V domains shown, Mouse hybridoma monoclonal; also called clone No. 69-1A) VH: EVKLEESGGGLVQPGGSMKLSCAASGFTFSDAWMDWVRQSPEKGLEWVAEIRSKANNHGTYYAESVKGRFTISRDDSKSSVYLRMNSLSAEDTGIYYCTRPFAYWGQGTLVTVSA VL: DVVVTQTPLSLPVSLGDQASISCRSSQSLVHIDGNTYFHWYVQKPGQSPKLLIYKVSNRFSGVPDRFSGSGSGTDFTLKISRVEAEDLGVYFCSQSTHVPLTFGAGTKLELK | < 1 OD

Source of measurements: patent US20250258178A1
